Tested on: HOSE1C
METHOD DESCRIPTION: drug sensitivity score (DSS) from 5-point dose-response viability curve (DSS (area-under-curve based score)); higher = more sensitive (stronger growth inhibition or killing); extreme values may be limits of the assay
EXPERIMENTAL CONDITIONS: exposure time: 72 h; concentration range: 5 concentrations over 10,000-fold range
In this section, each of the compounds is paired with its reported drug sensitivity score.

Quickly give me recorded drug sensitivity score for Cc1ccc(NS(=O)(=O)c2cccc(C#N)c2)c2[nH]cc(C#N)c12 [E7820] 7.3

For the compound CCCCCCCCCCCCCCCCCCOP(=O)([O-])OC1CC[N+](C)(C)CC1 [Perifosine] , give its measured drug sensitivity score value. 0

Entry CCN(CC)CCCC(C)Nc1c2ccc(Cl)cc2nc2ccc(OC)cc12 (configuration not stated) [Mepacrine] needs its drug sensitivity score filled in; supply it. 9.7

Tell us which drug sensitivity score value is on record for O=C(O)CNC(=O)c1c(O)c2ccccc2n(Cc2ccccc2)c1=O [IOX-2] 0.1

Determine its reported drug sensitivity score: CCN(CC)CCNC(=O)c1c(C)[nH]c(/C=C2\C(=O)Nc3ccc(F)cc32)c1C [Sunitinib] 0

Consider the compound COc1ccc(-c2nc(N3CCOCC3)c3sc(CN(C)c4ncc(C(=O)NO)cn4)cc3n2)cn1 [CUDC-907] and give its recorded drug sensitivity score. 45.8

Please report the measured drug sensitivity score for Nc1nc(Cl)nc2c1ncn2[C@@H]1O[C@H](CO)[C@@H](O)[C@@H]1F [Clofarabine] 25

Give the reported value of drug sensitivity score for this record: CN(Cc1cnc2nc(N)nc(N)c2n1)c1ccc(C(=O)N[C@@H](CCC(=O)O)C(=O)O)cc1 [Methotrexate] 13.7

Report measured drug sensitivity score; entry is CO[C@@H](C(=O)N1Cc2[nH]nc(NC(=O)c3ccc(N4CCN(C)CC4)cc3)c2C1)c1ccccc1 [Danusertib] 7.4

Recall and state the measured drug sensitivity score for O=C(CCCCCCC(=O)Nc1ccccc1)NO [Vorinostat] . 15.9

Tell me drug sensitivity score reported for N#CC[C@H](C1CCCC1)n1cc(-c2ncnc3[nH]ccc23)cn1 [Ruxolitinib] 0

Indicate the recorded drug sensitivity score value for this compound: O=C1CCC(N2C(=O)c3ccccc3C2=O)C(=O)N1 (configuration not stated) [Thalidomide] 0

Read off the recorded drug sensitivity score for COc1cccc2c1C(=O)c1c(O)c3c(c(O)c1C2=O)C[C@@](O)(/C(CO)=N/NC(=O)CCCCCN1C(=O)C=CC1=O)C[C@@H]3O[C@H]1C[C@H](N)[C@H](O)[C@H](C)O1 [Aldoxorubicin] 6.8

Give the reported value of drug sensitivity score for this record: CCc1nc(C(N)=O)c(Nc2ccc(N3CCC(N4CCN(C)CC4)CC3)c(OC)c2)nc1NC1CCOCC1 [Gilteritinib] 0

Identify drug sensitivity score associated with the compound CS(=O)(=O)c1ccc(C(=O)Nc2ccc(Cl)c(-c3ccccn3)c2)c(Cl)c1 [Vismodegib] 3.8

Read the entry Nc1nc(Cl)nc2c1ncn2[C@H]1C[C@H](O)[C@@H](CO)O1 [Cladribine] and write its reported drug sensitivity score. 0

Could you please provide reported drug sensitivity score for COc1cc2c(cc1OCCCN1CCCC1)N=C(N)C21CCC1 [A-366] ? Thanks! 0.8
